Assay: Volume of distribution in rat
Format: ADME, organism-based
Conditions: in vivo
Metric: Vd (L/kg)
Response body: numeric value in L/kg, unit text excluded.

Documented Vd of Cc1ncoc1-c1nnc(SCCCN2CC3CC3(c3ccc(S(F)(F)(F)(F)F)cc3)C2)n1C (racemic) : 2.8

###

Assay: Ratio of drug level in brain to blood in rat
Type: ADME, tissue-based
Conditions: read-out: BBR
Metric: Kp

Compound: Cc1ncoc1-c1nnc(SCCCN2CC3CC3(c3ccc(C(F)(F)F)cc3)C2)n1C (racemic)
Kp: 2.3

Compound: Cc1ncoc1-c1nnc(SCCCN2CC3CC3(c3ccc(S(F)(F)(F)(F)F)cc3)C2)n1C (racemic)
Kp: 2.2

###

Biological target: D(2) dopamine receptor (Homo sapiens, UniProt P14416)
Sequence (P14416 whole entry): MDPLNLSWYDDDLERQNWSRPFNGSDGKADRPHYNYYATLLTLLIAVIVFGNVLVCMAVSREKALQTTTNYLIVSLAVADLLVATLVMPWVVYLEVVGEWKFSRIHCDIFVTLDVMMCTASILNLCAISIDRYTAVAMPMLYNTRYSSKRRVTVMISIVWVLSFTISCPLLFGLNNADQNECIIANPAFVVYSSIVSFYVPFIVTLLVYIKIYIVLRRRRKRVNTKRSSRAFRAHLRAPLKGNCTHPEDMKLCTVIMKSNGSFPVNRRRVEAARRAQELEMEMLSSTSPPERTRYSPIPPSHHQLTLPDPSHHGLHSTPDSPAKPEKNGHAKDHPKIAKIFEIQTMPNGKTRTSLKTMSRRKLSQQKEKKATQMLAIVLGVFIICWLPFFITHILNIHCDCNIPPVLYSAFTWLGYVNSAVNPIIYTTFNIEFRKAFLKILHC
Test: Antagonist activity at dopamine D2 receptor assessed as inhibition of dopamine-induced [35S]GTPgammaS binding […]
pKi: −log10 of the molar value.
Metric: pKi

Solved cases below.
Molecule: Cc1ncoc1-c1nnc(SCCCN2CC3CC3(c3ccc(S(F)(F)(F)(F)F)cc3)C2)n1C (racemic)
Assay result: 6.80
--
Molecule: Cc1ncoc1-c1nnc(SCCCN2CC3CC3(c3ccc(S(F)(F)(F)(F)F)cc3)C2)n1C (stereo in doubt; 8)
Assay result: 6.80

1. Cc1ncoc1-c1nnc(SCCCN2CC3CC3(c3cccc(S(F)(F)(F)(F)F)c3)C2)n1C (single isomer, unassigned; 12)
2. Cc1ncoc1-c1nnc(SCCCN2CC3CC3(c3ccc(S(F)(F)(F)(F)F)cc3)C2)n1C (single isomer, unassigned)
3. Cc1ncoc1-c1nnc(SCCCN2CC3CC3(c3cccc(S(F)(F)(F)(F)F)c3)C2)n1C (racemic)
**Q:** List items by pKi in falling order. Reply with the item labels sorted in the order that was asked for.
**A:** 1, 3, 2
(1: 7.50, 3: 6.90, 2: 6.60)

###

As an illustration, consider measured IC50 for compounds on UniProt P33261.
Sequence (P33261 whole entry): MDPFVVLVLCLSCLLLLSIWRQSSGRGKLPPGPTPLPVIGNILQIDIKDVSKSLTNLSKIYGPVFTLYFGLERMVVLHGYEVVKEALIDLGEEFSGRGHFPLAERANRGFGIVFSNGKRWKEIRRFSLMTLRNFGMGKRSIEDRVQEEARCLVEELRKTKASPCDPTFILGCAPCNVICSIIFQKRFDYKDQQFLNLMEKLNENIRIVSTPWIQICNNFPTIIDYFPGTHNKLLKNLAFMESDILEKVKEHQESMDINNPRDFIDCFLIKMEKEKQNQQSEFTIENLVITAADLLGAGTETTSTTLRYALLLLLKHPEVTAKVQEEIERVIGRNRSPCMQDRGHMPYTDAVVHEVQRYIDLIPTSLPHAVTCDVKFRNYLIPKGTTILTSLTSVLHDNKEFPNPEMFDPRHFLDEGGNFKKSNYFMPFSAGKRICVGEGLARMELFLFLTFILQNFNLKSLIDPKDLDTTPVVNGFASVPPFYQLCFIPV
Metric: IC50 (µM)

1. Cc1ncoc1-c1nnc(SCCCN2CC3CC3(c3cccc(S(F)(F)(F)(F)F)c3)C2)n1C (single isomer, unassigned; 11)
2. Cc1ncoc1-c1nnc(SCCCN2CC3CC3(c3cccc(S(F)(F)(F)(F)F)c3)C2)n1C (racemic)
**Q:** Which record would sort first by descending IC50, 1 or 2 ? Please indicate the selected item by its label.
**A:** 2

###

Assay: Half life in rat
Type: ADME, organism-based
Settings: in vivo
Metric: half-life (h)
Response body: numeric value in h, unit text excluded.

Documented half-life of Cc1ncoc1-c1nnc(SCCCN2CC3CC3(c3ccc(S(F)(F)(F)(F)F)cc3)C2)n1C (racemic) : 4.4

###

Assay: Blood clearance in rat
Format: ADME, organism-based
Details: whole blood
Metric: clearance (mL/min/kg)

a. Cc1ncoc1-c1nnc(SCCCN2CC3CC3(c3ccc(C(F)(F)F)cc3)C2)n1C (racemic)
b. Cc1ncoc1-c1nnc(SCCCN2CC3CC3(c3ccc(S(F)(F)(F)(F)F)cc3)C2)n1C (racemic)
**Q:** Which record would sort first by descending clearance, a or b ? Please indicate the selected item by its label.
**A:** a

###

Protein target, amino acids: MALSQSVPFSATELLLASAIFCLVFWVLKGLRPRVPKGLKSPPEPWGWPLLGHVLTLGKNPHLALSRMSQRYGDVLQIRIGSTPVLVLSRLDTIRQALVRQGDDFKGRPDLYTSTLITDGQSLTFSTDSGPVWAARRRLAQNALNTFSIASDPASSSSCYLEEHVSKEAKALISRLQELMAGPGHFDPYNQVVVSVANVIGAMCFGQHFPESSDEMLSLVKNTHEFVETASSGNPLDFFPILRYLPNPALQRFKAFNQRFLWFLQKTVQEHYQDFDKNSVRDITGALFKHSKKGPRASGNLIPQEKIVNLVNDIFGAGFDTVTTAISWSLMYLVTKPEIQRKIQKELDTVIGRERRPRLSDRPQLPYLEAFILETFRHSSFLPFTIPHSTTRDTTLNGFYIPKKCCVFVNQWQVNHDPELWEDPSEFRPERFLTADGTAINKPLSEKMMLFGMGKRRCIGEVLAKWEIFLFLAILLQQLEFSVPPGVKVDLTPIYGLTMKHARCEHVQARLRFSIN
pIC50: −log10 of the molar value.
Metric: pIC50

Molecule: Cc1ncoc1-c1nnc(SCCCN2CC3CC3(c3ccc(S(F)(F)(F)(F)F)cc3)C2)n1C (single isomer, unassigned)
pIC50: 5.15

Documented pIC50 of Cc1ncoc1-c1nnc(SCCCN2CC3CC3(c3cccc(S(F)(F)(F)(F)F)c3)C2)n1C (single isomer, unassigned; 11) : < 5.00

Documented pIC50 of Cc1ncoc1-c1nnc(SCCCN2CC3CC3(c3cccc(C(F)(F)F)c3)C2)n1C (racemic) : < 5.00

Documented pIC50 of Cc1ncoc1-c1nnc(SCCCN2CC3CC3(c3ccc(S(F)(F)(F)(F)F)cc3)C2)n1C (racemic) : < 5.00
